biological target: WDR5 (Homo sapiens)
pKi: −log10 of the molar value.
quantity_kind: pKi

I = N#CC1(c2cc(NS(=O)(=O)c3cc(Br)ccc3O)c(O)c(C(=O)NCc3ccc(=O)[nH]c3)c2)CCC1 [Example J230]
II = CC(C)N(CCS(=O)(=O)c1cc(Cl)cc(NS(=O)(=O)c2cc(Br)cc(Cl)c2O)c1)C(C)C [Example S37]
// compare: I vs II , metric pKi, want the smaller Respond with the label that goes with your answer.
I
(I: 6.20, II: 6.40)

P = CS(=O)(=O)c1cc(Cl)cc(NS(=O)(=O)c2cc(Br)cc(Cl)c2O)c1F [Example S54]
Q = COCCNC(=O)c1cc(Cl)cc(NS(=O)(=O)c2cc(Br)cc(Cl)c2O)c1O [Example J42]
// compare: P vs Q , metric pKi, want the smaller Respond with the label that goes with your answer.
P
(P: 6.10, Q: 6.52)

====

Quick record of Ki values for WDR5 (Homo sapiens, UniProt P61964).
quantity_kind: Ki (µM)

{"compound": "O=S(=O)(Nc1cc(C2(C(F)(F)F)CC2)ccc1O)c1cc(Br)ccc1O [JDM-09-131]", "Ki, µM": 0.55}
{"compound": "O=C(O)c1cc(C2CC2)cc(NS(=O)(=O)c2cc(Br)ccc2O)c1O [Example J68]", "Ki, µM": 0.05}
{"compound": "O=C(NC1COC1)c1cc(OC(F)(F)F)cc(NS(=O)(=O)c2cc(Br)ccc2O)c1O [HCH-9]", "Ki, µM": 0.38}
{"compound": "CNC(=O)c1c(O)c(NS(=O)(=O)c2cc(Br)cc(F)c2O)cc(C2CC2)c1F [Example J150]", "Ki, µM": 0.92}
{"compound": "CCc1cc(Br)cc(S(=O)(=O)Nc2cc(Cl)cc(C(=O)NC3COC3)c2O)c1O [HCH-58]", "Ki, µM": 0.46}
{"compound": "COc1ccc(Br)cc1S(=O)(=O)Nc1cc(Cl)cc(C(=O)N2CCC[C@@H]2CO)c1O [Example J55]", "Ki, µM": 8.17}
{"compound": "O=C(O)c1cc(C2CC2)cc(NS(=O)(=O)c2cc(Br)cc3cccnc23)c1F [Example J113]", "Ki, µM": 1.71}
{"compound": "O=C(O)c1cc(Cl)cc(NS(=O)(=O)c2cc(Br)cc(Cl)c2O)c1O [Example J4]", "Ki, µM": 0.06}
{"compound": "COC[C@H]1CCCN1C(=O)c1cc(OC(F)(F)F)cc(NS(=O)(=O)c2cc(Cl)ccc2O)c1O [Example J177]", "Ki, µM": 4.86}
{"compound": "O=C(NC1CCOC1)c1cc(Cl)cc(NS(=O)(=O)c2cc(Br)ccc2O)c1O (centres unmarked) [Example J18]", "Ki, µM": 1.35}

P = O=[N+]([O-])c1cc(Cl)cc(NS(=O)(=O)c2cc(Br)cc3c2OCC3)c1O [NE7]
Q = O=C(NC1CC(F)(F)C1)c1cc(OC(F)(F)F)cc(NS(=O)(=O)c2cc(Br)ccc2O)c1O [HCH-55]
R = COCCNC(=O)c1cc(F)cc(NS(=O)(=O)c2cc(Br)ccc2O)c1O [Example J110]
Please give the order of these compounds when sorted by Ki, largest value leading. Your answer should be the labels, listed in the requested order.
R, P, Q
(R: 2.26 µM, P: 1.11 µM, Q: 0.35 µM)

P = CS(=O)(=O)c1cc(C(F)(F)F)cc(NS(=O)(=O)c2cc(Br)ccc2O)c1O [Example S25]
Q = O=C(NCCO)c1cc(C2CC2)cc(NS(=O)(=O)c2cc(Br)ccc2O)c1O [Example J87]
// compare: P vs Q , metric Ki, want the smaller Respond with the label that goes with your answer.
P

1 = O=C(O)c1cc(OC(F)(F)F)cc(NS(=O)(=O)c2cc(Br)cc3cccnc23)c1O [Example J161]
2 = N#CC1(c2ccc(O)c(NS(=O)(=O)c3cc(Br)ccc3O)c2)CCCC1 [JDM-06-030A]
// compare: 1 vs 2 , metric Ki, want the smaller Respond with the label that goes with your answer.
1
(1: 0.35 µM, 2: 0.61 µM)
